# test protocol: Cynomolgus monkey tolerability, hematology (Example 34)
# Assay type: in vivo, cynomolgus monkeys
# condition set: cynomolgus monkey, in vivo, sc, 35 mg/kg
readout name: MCHC (g/dL)
State just the number; it will be interpreted in g/dL.

1198872 (TGTATGTCAGAAGAGT; chemically modified gapmer, further chemistry not given here) [compound 1198872]	30
1198439 (AGTGTATGTCAGAAGA; sugar, 5-methylcytosine, phosphorothioate modifications, further chemistry not given here) [compound 1198439]	28
1198831 (CACTTTTACATTAGGA; chemically modified gapmer, further chemistry not given here) [compound 1198831]	30

Could you now look at the following substance, please?
Query MCHC for 1197270 (TTAAAGTGTATGTCAG; cEt gapmer with 2'-OMe nucleoside, phosphorothioate, further chemistry not given here) [compound 1197270]
28

* * *

# Test system: Yap1 mRNA
# test protocol: Dose-dependent inhibition of human Yap1 in A-431 cells (Example 8, 10,000 cells per well, RTS4814)
# Type: cell-based
# condition set: 500.0 nM; A-431 cells
Strand notation (5' to 3'): a small letter for the sugar, then the base; units joined by * are phosphorothioate-linked, units joined directly phosphodiester-linked; [ ] holds rarer units or linkages, { } end groups; capitals alone tell only the bases. k = constrained ethyl (cEt); [5mC] = 5-methylcytosine; d = 2'-deoxy (DNA)
readout name: % UTC (Yap1 mRNA) (% UTC)
Please state the figure in % UTC; there is no need to write the unit.

Worked examples follow.
1074613 (DNA k[5mC]*kA*kT*dA*dG*d[5mC]*dT*dT*dA*dT*dA*dT*dT*kG*kA*kA; antisense) [compound 1074613]	9
1074230 (antisense kA*kA*kG*dA*dA*dG*dA*d[5mC]*dT*dG*dT*d[5mC]*dG*kA*kA*kG) [compound 1074230]	12

Please find the next substance below.
Specify reported % UTC (Yap1 mRNA) for the substance shown: 1074679 (antisense kT*k[5mC]*kT*dT*dA*dA*dT*d[5mC]*dT*dG*dT*dG*dG*k[5mC]*kT*kA) [compound 1074679]
6

* * *

# System: Yap1 mRNA
# test protocol: Dose-dependent inhibition of human Yap1 in A-431 cells (Example 8, 10,000 cells per well, RTS4814)
# Type: cell-based
# condition set: 31.3 nM; A-431 cells, 10,000 cells per well, free uptake, approximately 48 hours, RTS4814
Strand notation (5' to 3'): a small letter for the sugar, then the base; units joined by * are phosphorothioate-linked, units joined directly phosphodiester-linked; [ ] holds rarer units or linkages, { } end groups; capitals alone tell only the bases. k = constrained ethyl (cEt); [5mC] = 5-methylcytosine; d = 2'-deoxy (DNA)
Note to self: values exactly at 50 % UTC are 1 (yes). So Yap1 mRNA, % UTC at or above 50 % UTC is 1 (yes), below is 0 (no).

Worked cases, answers included:
1076464 (k[5mC]*kA*kT*dA*dT*dA*d[5mC]*dA*dA*dT*dT*d[5mC]*dT*kG*k[5mC]*k[5mC]; antisense) [compound 1076464]	0 (no)
1076456 (k[5mC]*kT*kT*dT*dA*dA*dA*dG*dT*dG*dT*dA*dT*kG*kT*k[5mC]) [compound 1076456]	0 (no)
1076299 (k[5mC]*kG*kT*dT*dA*dT*dA*dA*dA*dG*dA*d[5mC]*d[5mC]*k[5mC]*kA*kA; antisense) [compound 1076299]	1 (yes)

Now consider a different substance.
Hello, I need to know if 1075048 (antisense kG*kT*kA*dA*dA*dA*dT*dT*dA*dG*dA*d[5mC]*dT*k[5mC]*k[5mC]*k[5mC]) [compound 1075048] has measured Yap1 mRNA, % UTC not below 50 % UTC. Thanks!
1 (yes)
